# subject-of-test: T1, Formyl-Peptide Receptor 1 (UniProt P21462 1-350, limits assumed)
# T1 sequence (looked up): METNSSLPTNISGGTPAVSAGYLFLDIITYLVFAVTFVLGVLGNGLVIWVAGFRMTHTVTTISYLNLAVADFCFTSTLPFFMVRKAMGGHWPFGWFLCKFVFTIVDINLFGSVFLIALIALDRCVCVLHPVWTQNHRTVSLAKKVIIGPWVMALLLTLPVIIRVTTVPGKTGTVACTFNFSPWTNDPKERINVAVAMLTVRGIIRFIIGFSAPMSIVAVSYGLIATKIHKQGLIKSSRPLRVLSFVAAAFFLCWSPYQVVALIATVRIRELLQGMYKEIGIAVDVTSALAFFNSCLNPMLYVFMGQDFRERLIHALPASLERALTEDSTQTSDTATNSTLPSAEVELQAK
# experiment-summary: cell-based or functional assay
Bridges are numbered along the chain shown (N, C = ends). [ ]: non-standard residue; d: D form. d(cisHyp) = O=C(O)[C@H]1C[C@@H](O)CN1
experimental-readout: β-Arrestin IC50 (µM)
State just the number; it will be interpreted in µM.

// sample cyclo(KHACHG[dP]WTICYQK[dP]P) (disulfide 4-11; SMILES CC[C@H](C)[C@@H]1NC(=O)[C@H]([C@@H](C)O)NC(=O)[C@H](Cc2c[nH]c3ccccc23)NC(=O)[C@H]2CCCN2C(=O)CNC(=O)[C@H](Cc2c[nH]cn2)NC(=O)[C@@H]2CSSC[C@H](NC1=O)C(=O)N[C@@H](Cc1ccc(O)cc1)C(=O)N[C@@H](CCC(N)=O)C(=O)N[C@@H](CCCCN)C(=O)N1CCC[C@@H]1C(=O)N1CCC[C@H]1C(=O)N[C@@H](CCCCN)C(=O)N[C@@H](Cc1c[nH]cn1)C(=O)N[C@@H](C)C(=O)N2) [cyclo(-Lys-His-Ala-Cys-His-Gly-^DPro-Trp-Thr-Ile-Cys-Tyr-Gln-Lys-^DPro-Pro-)] , its β-Arrestin IC50 was 0.59

// sample cyclo(YHACHG[dA]WTICYQK[dP]P) (disulfide 4-11; SMILES CC[C@H](C)[C@@H]1NC(=O)[C@H]([C@@H](C)O)NC(=O)[C@H](Cc2c[nH]c3ccccc23)NC(=O)[C@@H](C)NC(=O)CNC(=O)[C@H](Cc2c[nH]cn2)NC(=O)[C@@H]2CSSC[C@H](NC1=O)C(=O)N[C@@H](Cc1ccc(O)cc1)C(=O)N[C@@H](CCC(N)=O)C(=O)N[C@@H](CCCCN)C(=O)N1CCC[C@@H]1C(=O)N1CCC[C@H]1C(=O)N[C@@H](Cc1ccc(O)cc1)C(=O)N[C@@H](Cc1c[nH]cn1)C(=O)N[C@@H](C)C(=O)N2) [cyclo(-Tyr-His-Ala-Cys-His-Gly-^DAla-Trp-Thr-Ile-Cys-Tyr-Gln-Lys-^DPro-Pro-)] , its β-Arrestin IC50 was 0.458

// sample cyclo(YHKCHG[d(cisHyp)]WTICYEK[dP]P) (disulfide 4-11) [cyclo(-Tyr-His-Lys-Cys-His-Gly-^DPro((4R)OH)-Trp-Thr-Ile-Cys-Tyr-Glu-Lys-^DPro-Pro-)] , its β-Arrestin IC50 was 0.485
